# system: FLT3 D835H (Homo sapiens, UniProt P36888, D835H)
# Sequence (P36888 610-943 D835H limits assumed): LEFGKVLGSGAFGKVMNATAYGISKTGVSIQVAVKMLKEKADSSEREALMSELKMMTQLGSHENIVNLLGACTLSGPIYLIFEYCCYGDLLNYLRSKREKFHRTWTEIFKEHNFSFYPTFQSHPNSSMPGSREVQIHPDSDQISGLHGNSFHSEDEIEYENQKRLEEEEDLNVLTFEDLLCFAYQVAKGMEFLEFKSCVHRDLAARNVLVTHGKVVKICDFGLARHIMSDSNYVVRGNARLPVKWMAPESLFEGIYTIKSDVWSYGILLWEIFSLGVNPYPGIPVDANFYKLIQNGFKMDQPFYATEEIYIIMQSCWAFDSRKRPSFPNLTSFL
# protocolText: KINOMEscan KdElect competitive binding assay, FLT3 D835H
# testContext: tosylate salt
recordedEndpoint: Kd (nM)
Return type: number; implicit unit nM.

Give reported Kd for COCCOc1ccc2c(c1)ncn2-c1ccc2cccc(N3CCC(N)CC3)c2n1 [CP-673,451] (FLT3 D835H (Homo sapiens, UniProt P36888, D835H))
0.16

---

# Tested on: Ba/F3 expressing FLT3-D835Y/ITD cells
# protocolText: Activity against Ba/F3 cells with FLT3-ITD and FLT3-D835Y mutation
# Type: cell-based
# testContext: Mus musculus, BaF3; Ba/F3 FLT-ITD/D835Y cells; read-out: IC50 pFLT3 (text: decreased viability)
recordedEndpoint: pIC50
Note on pIC50: it is the negative log10 of concentration, concentration in mol/L.

Check the records and state pIC50 for "COCCOc1ccc2c(c1)ncn2-c1ccc2cccc(N3CCC(N)CC3)c2n1"
7.62

---

# system: FLT3 K663Q (Homo sapiens, UniProt P36888, K663Q)
# protocolText: KINOMEscan KdElect competitive binding assay, FLT3 K663Q
# testContext: tosylate salt; read-out: Binding Constant (Kd), FLT3 K663Q
recordedEndpoint: Kd (nM)
Return type: number; implicit unit nM.

Give reported Kd for "COCCOc1ccc2c(c1)ncn2-c1ccc2cccc(N3CCC(N)CC3)c2n1" (FLT3 K663Q (Homo sapiens, UniProt P36888, K663Q))
0.62

---

# system: FLT3 ITD (Homo sapiens)
# protocolText: Inhibition of FLT3-ITD phosphorylation by western blot in BaF3 cells transduced to express FLT3
# testContext: Ba/F3 FLT3-ITD cells, tosylate salt, read-out: IC50, inhibition of phosphorylation of the FLT3-ITD receptor
recordedEndpoint: IC50 (nM)
Return type: number; implicit unit nM.

Check the records and state IC50 for "COCCOc1ccc2c(c1)ncn2-c1ccc2cccc(N3CCC(N)CC3)c2n1"
5.1

---

# system: FLT3 (ITD, D835V) (Homo sapiens, UniProt P36888, D835V, form not given)
# Construct: fused on or other part: DNA tag / T7 phage display tag for qPCR detection
# protocolText: KINOMEscan KdElect competitive binding assay, dual mutant FLT3 (ITD, D835V)
# testContext: tosylate salt; read-out: Kd, FLT3 (ITD, D835V) double mutant
recordedEndpoint: Kd (nM)
Return type: number; implicit unit nM.

Give reported Kd for "COCCOc1ccc2c(c1)ncn2-c1ccc2cccc(N3CCC(N)CC3)c2n1" (FLT3 (ITD, D835V) (Homo sapiens, UniProt P36888, D835V, form not given))
0.015

---

# system: FLT3 (ITD, F691I) (Homo sapiens, UniProt P36888)
# Construct: fused on or other part: DNA tag / T7 phage display tag for qPCR detection
# protocolText: KINOMEscan KdElect competitive binding assay, dual mutant FLT3 (ITD, F691I)
# testContext: tosylate salt; read-out: Kd, FLT3 (ITD, F691I) double mutant
recordedEndpoint: Kd (nM)
Return type: number; implicit unit nM.

Check the records and state Kd for "COCCOc1ccc2c(c1)ncn2-c1ccc2cccc(N3CCC(N)CC3)c2n1"
0.18

---

# system: FLT3 D835V (Homo sapiens, UniProt P36888, D835V)
# Construct: host or cells: E. coli BL21-derived host (T7 phage) or HEK-293
# Sequence (P36888 610-943 D835V limits assumed): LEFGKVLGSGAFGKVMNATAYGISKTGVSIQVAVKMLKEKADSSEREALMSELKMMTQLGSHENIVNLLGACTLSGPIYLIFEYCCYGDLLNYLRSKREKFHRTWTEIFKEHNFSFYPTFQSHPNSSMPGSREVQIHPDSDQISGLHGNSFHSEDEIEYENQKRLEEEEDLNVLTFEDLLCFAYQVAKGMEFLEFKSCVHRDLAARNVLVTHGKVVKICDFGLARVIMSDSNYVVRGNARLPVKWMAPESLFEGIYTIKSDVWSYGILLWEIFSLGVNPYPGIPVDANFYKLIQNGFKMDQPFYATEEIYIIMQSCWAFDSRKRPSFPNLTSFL
# protocolText: KINOMEscan KdElect competitive binding assay, FLT3 D835V
# testContext: tosylate salt
recordedEndpoint: Kd (nM)
Return type: number; implicit unit nM.

Check the records and state Kd for "COCCOc1ccc2c(c1)ncn2-c1ccc2cccc(N3CCC(N)CC3)c2n1"
0.015

---

# system: FLT3 N841I (Homo sapiens, UniProt P36888, N841I)
# protocolText: KINOMEscan KdElect competitive binding assay, FLT3 N841I
# testContext: tosylate salt; read-out: Binding Constant (Kd), FLT3 N841I
recordedEndpoint: Kd (nM)
Return type: number; implicit unit nM.

Give reported Kd for "COCCOc1ccc2c(c1)ncn2-c1ccc2cccc(N3CCC(N)CC3)c2n1" (FLT3 N841I (Homo sapiens, UniProt P36888, N841I))
0.39

---

# system: FLT3 ITD (Homo sapiens)
# Sequence (P36888 1-993): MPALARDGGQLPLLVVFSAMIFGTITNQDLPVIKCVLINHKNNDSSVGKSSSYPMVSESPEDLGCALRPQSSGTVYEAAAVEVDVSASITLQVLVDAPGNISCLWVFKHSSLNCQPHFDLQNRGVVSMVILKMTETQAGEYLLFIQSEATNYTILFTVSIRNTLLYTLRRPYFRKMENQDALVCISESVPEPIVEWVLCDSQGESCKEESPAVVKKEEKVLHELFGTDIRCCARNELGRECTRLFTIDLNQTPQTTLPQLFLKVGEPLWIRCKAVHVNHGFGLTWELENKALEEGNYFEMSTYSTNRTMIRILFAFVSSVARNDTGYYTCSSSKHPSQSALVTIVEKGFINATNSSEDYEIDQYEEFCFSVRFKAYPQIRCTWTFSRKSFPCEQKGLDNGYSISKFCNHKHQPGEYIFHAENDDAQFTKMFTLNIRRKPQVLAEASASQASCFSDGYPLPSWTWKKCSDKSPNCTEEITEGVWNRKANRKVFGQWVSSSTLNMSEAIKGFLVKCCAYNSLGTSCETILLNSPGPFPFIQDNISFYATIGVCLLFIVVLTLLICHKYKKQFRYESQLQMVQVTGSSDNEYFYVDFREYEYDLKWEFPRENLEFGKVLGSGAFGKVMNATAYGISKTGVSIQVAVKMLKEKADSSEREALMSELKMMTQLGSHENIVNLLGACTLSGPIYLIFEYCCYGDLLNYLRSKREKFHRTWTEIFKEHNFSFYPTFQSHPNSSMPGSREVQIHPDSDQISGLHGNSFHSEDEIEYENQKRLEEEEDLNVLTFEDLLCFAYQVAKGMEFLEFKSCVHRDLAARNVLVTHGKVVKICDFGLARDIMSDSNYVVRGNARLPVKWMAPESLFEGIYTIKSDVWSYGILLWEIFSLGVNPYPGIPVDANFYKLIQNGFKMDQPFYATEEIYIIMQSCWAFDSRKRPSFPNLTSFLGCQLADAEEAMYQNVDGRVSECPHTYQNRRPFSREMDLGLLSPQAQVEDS
# testContext: read-out: Binding Constant (Kd), FLT3 ITD; CP-673,451 as tosylate salt
recordedEndpoint: pKd
Note on pKd: it is the negative log10 of concentration, concentration in mol/L.

Check the records and state pKd for COCCOc1ccc2c(c1)ncn2-c1ccc2cccc(N3CCC(N)CC3)c2n1 [CP-673,451]
9.60

---

# system: FLT3 R834Q (Homo sapiens, UniProt P36888, R834Q)
# Sequence (P36888 610-943 R834Q limits assumed): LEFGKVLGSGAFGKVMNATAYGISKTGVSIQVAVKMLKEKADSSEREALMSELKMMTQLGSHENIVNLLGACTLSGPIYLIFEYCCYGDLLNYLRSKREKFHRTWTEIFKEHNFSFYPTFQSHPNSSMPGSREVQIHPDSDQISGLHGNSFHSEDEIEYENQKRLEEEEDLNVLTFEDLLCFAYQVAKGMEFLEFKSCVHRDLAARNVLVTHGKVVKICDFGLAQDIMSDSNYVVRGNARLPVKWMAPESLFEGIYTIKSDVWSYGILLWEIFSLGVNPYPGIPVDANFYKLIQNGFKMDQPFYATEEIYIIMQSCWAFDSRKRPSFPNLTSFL
# protocolText: KINOMEscan KdElect competitive binding assay, FLT3 R834Q
# testContext: tosylate salt; read-out: Binding Constant (Kd), FLT3 R834Q
recordedEndpoint: Kd (nM)
Return type: number; implicit unit nM.

Check the records and state Kd for "COCCOc1ccc2c(c1)ncn2-c1ccc2cccc(N3CCC(N)CC3)c2n1"
0.65
